Test system: VCaP cells
protocol-notes: Cellular potency (IC50) in VCaP cells
Type: cell-based
cond: Homo sapiens, VCaP
assay-readout: IC50

[
  {
    "compound": "C[C@H]1CC2(CCN(c3ccc(N4CCC(CN5Cc6cc7c(cc6C5)C(=O)N(C5CCC(=O)NC5=O)C7=O)CC4)cn3)CC2)CN1c1ccc(C#N)c(Cl)c1 (some centres unmarked) [compound 52]",
    "target-or-test-system": "VCaP cells",
    "assay-readout": "IC50",
    "result": "< 0.1 µM"
  },
  {
    "compound": "C[C@H]1CC2(CCN(c3ccc(C(=O)N4CCC(C(=O)CN5Cc6cc7c(cc6C5)C(=O)N(C5CCC(=O)NC5=O)C7=O)CC4)nc3)CC2)CN1c1ccc(C#N)c(Cl)c1 (some centres unmarked) [compound 160]",
    "target-or-test-system": "VCaP cells",
    "assay-readout": "IC50",
    "result": "< 1 µM"
  },
  {
    "compound": "C[C@H]1CC2(CCN(c3cnc(C(=O)N4CCN(C5CN(c6ccc7c(c6)C(=O)N(C6CCC(=O)NC6=O)C7=O)C5)CC4)s3)CC2)CN1c1ccc(C#N)c(Cl)c1 (some centres unmarked) [compound 137]",
    "target-or-test-system": "VCaP cells",
    "assay-readout": "IC50",
    "result": "< 0.1 µM"
  },
  {
    "compound": "C[C@H]1CC2(CCN(c3ccc(N4CCN(CC5CN(c6ccc7c(c6)C(=O)N(C6CCC(=O)NC6=O)C7=O)C5)CC4)nn3)CC2)CN1c1ccc(C#N)c(Cl)c1 (some centres unmarked) [compound 47]",
    "target-or-test-system": "VCaP cells",
    "assay-readout": "IC50",
    "result": "< 0.01 µM"
  },
  {
    "compound": "C[C@H]1CC2(CCN(c3ccc(N4CC(N(C)C5CN(c6ccc7c(c6)C(=O)N(C6CCC(=O)NC6=O)C7=O)C5)C4)cc3)CC2)CN1c1ccc(C#N)c(Cl)c1 (some centres unmarked) [compound 121]",
    "target-or-test-system": "VCaP cells",
    "assay-readout": "IC50",
    "result": "< 0.1 µM"
  }
]

* * *

Tested on: VCaP cells
protocol-notes: Cellular potency (IC50) in VCaP cells
Format: cell-based
cond: Homo sapiens, VCaP
pIC50: −log10 of the molar value.
assay-readout: pIC50

[
  {
    "compound": "C[C@H]1CC2(CCN(c3ccc(OC4CN(C5CN(c6ccc7c(c6)C(=O)N(C6CCC(=O)NC6=O)C7=O)C5)C4)cc3)CC2)CN1c1ccc(C#N)c(Cl)c1 (some centres unmarked) [compound 59]",
    "result": "> 8.00"
  },
  {
    "compound": "C[C@H]1CC2(CCN(c3ccc(CN4CCC(C5CCN(c6ccc7c(c6)C(=O)N(C6CCC(=O)NC6=O)C7=O)CC5)CC4)cn3)CC2)CN1c1ccc(C#N)c(Cl)c1 (some centres unmarked) [compound 180]",
    "result": "> 7.00"
  },
  {
    "compound": "C[C@H]1CC2(CCN(c3ncc(CN4CCN(C5CN(c6ccc7c(c6)C(=O)N(C6CCC(=O)NC6=O)C7=O)C5)CC4)cn3)CC2)CN1c1ccc(C#N)c(Cl)c1 (some centres unmarked) [compound 183]",
    "result": "> 7.00"
  },
  {
    "compound": "C[C@H]1CC2(CCN(c3ccc(S(=O)(=O)C4CCN(CC5CCN(c6ccc7c(c6)C(=O)N(C6CCC(=O)NC6=O)C7=O)CC5)CC4)cc3)CC2)CN1c1ccc(C#N)c(Cl)c1 (some centres unmarked) [compound 162]",
    "result": "> 8.00"
  },
  {
    "compound": "C[C@H]1CC2(CCN(c3cnc(N4CCN(CC5CCN(c6ccc7c(c6)C(=O)N(C6CCC(=O)NC6=O)C7=O)CC5)CC4)nc3)CC2)CN1c1ccc(C#N)c(Cl)c1 (some centres unmarked) [compound 83]",
    "result": "> 8.00"
  }
]
